Target: human GluR1 flip (Homo sapiens, UniProt P42261)
Construct: expressed in transfected cells; host or cells: CHO-K1
Sequence (P42261 19-906 isoform P42261-2 limits assumed): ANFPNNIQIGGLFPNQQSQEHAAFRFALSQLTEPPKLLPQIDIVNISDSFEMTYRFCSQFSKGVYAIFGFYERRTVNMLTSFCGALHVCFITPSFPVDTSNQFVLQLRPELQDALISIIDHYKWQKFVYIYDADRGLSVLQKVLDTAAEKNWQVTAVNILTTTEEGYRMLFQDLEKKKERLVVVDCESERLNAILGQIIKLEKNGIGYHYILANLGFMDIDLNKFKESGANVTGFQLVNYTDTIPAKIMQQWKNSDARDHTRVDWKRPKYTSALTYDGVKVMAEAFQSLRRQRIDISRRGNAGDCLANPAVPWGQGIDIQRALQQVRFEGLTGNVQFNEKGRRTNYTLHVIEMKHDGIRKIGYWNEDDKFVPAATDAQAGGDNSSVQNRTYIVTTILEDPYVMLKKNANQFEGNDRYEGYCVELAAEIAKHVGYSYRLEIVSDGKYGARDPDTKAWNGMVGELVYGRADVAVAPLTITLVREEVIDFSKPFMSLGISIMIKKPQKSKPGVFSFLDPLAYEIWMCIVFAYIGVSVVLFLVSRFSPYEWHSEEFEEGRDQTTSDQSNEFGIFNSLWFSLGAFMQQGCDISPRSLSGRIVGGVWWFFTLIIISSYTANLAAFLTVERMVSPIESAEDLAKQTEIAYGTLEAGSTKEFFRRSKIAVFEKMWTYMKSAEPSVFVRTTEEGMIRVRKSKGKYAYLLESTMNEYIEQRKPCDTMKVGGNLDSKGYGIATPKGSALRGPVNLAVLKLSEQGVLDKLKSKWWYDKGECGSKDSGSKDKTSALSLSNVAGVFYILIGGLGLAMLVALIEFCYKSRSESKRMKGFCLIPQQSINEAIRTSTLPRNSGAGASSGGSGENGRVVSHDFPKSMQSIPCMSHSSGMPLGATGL
Sequence (Q9Y698 whole entry partner): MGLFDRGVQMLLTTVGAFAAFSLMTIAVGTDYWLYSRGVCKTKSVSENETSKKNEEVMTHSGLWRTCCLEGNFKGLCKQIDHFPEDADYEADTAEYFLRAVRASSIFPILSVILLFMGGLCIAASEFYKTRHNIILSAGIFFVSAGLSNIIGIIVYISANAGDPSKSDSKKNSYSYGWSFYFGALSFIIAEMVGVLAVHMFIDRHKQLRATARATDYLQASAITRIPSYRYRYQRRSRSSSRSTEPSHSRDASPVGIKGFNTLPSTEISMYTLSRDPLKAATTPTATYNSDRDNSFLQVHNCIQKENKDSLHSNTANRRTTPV
Experiment: AMPA receptor function-enhancing activity using calcium influx as index (CHO-K1/GluR1 flip/stargazin-expressing cells)
Type: cell-based
Settings: CHO-K1, test compound 30 μM with 3 mM glutamic acid, 100% = 3 mM glutamic acid + 300 μM cyclothiazide, 0% = 3 mM glutamic acid alone, read-out: hGluR1 flip/30 μM (%)
Text: Experimental Example 1 Measurement method of AMPA receptor function-enhancing activity of compound using calcium influx as index (1) Construction of Expression Gene Human GluR1 flip cDNA was amplified by PCR method using forward primer […] (SEQ ID NO: 1) and reverse primer […] (SEQ ID NO: 2) artificially synthesized using human brain-derived cDNA (BD Bioscience) as a template. […]
Quantity kind: activation at 30 µM (%)

Cc1cc2c(nc(C(F)(F)F)n2CC(F)F)c(-c2ccc(C(=O)N3CCOCC(F)(F)C3)c(F)c2)n1	100
O=C(c1ccc(-c2cccc3c2nc(C(F)(F)F)n3CC(F)F)nc1)N1CCOCC(F)(F)C1	77
O=C(c1ncc(-c2cccc3c2nc(C(F)(F)F)n3CC(F)F)cc1F)N1CCOCC1	81.2
C[C@H]1CN(C(=O)c2ccc(-c3cccc4c3nc(C(F)(F)F)n4CC(F)F)cc2)CCO1	112
O=C(c1ccc(-c2cccc3c2nc(C(F)(F)F)n3CC(F)F)cc1)N1CCOCC(F)(F)C1	93
O=C(c1ccc(-c2nccc3c2nc(C(F)(F)F)n3CC(F)F)cc1F)N1CCOCC2(CC2)C1	80.2
O=C(c1ccc(-c2nccc3c2nc(C(F)(F)F)n3CC(F)F)c(F)c1)N1CCOCC1	69
O=C(c1ccc(-c2nccc3c2nc(C(F)(F)F)n3CC(F)F)c(F)c1F)N1CCOCC1	83.9
O=C(c1ccc(-c2nccc3c2nc(C(F)(F)F)n3CC(F)F)cc1F)N1CC(F)(F)C1	79.3
CO[C@@H]1CCN(C(=O)c2ccc(-c3nccc4c3nc(C(F)(F)F)n4CC(F)F)cc2F)C1	89.8
O=C(c1ccc(-c2cccc3c2nc(C(F)(F)F)n3CC(F)F)cn1)N1CCOCC(F)(F)C1	110
CN(CCC#N)C(=O)c1ccc(-c2cccc3c2nc(C(F)(F)F)n3CC(F)F)cc1	93.7
CCn1c(C(F)(F)F)nc2c(-c3ccc(C(=O)N4CCOCC4)c(F)c3)nccc21	109
O=C(c1ccc(-c2c(F)ccc3c2nc(C(F)(F)F)n3CC(F)F)cc1)N1CCOCC1	93.5
C[C@H]1CN(C(=O)c2ccc(-c3cccc4c3nc(C(F)(F)F)n4C)cc2F)CCO1	80.3
O=C(c1ccc(-c2cccc3c2nc(C(F)(F)F)n3CC(F)F)cc1)N1CCCOCC1	92.6
O=C(c1ccc(-c2nccc3c2nc(C(F)(F)F)n3CC(F)F)cc1F)N1CCCOCC1	72
CN(C(=O)c1ccc(-c2nccc3c2nc(C(F)(F)F)n3CC(F)F)cc1F)C1CCOCC1	97.8
O=C(c1ccc(-c2nccc3c2nc(C(F)(F)F)n3CC(F)F)cc1)N1CCOCC(F)(F)C1	122
O=C(c1ccc(-c2cccc3c2nc(C(F)(F)F)n3CC(F)F)c(F)c1)N1CCOCC1	113
O=C(c1ccc(-c2nccc3c2nc(C(F)(F)F)n3CC(F)F)cc1F)N1CCOCC1	90.5
COC1CCN(C(=O)c2ccc(-c3nccc4c3nc(C(F)(F)F)n4CC(F)F)cc2F)CC1	67.1
Cn1c(C(F)(F)F)nc2c(-c3ccc(C(=O)N4CCOCC4)c(F)c3)cccc21	84.4
CCn1c(C(F)(F)F)nc2c(-c3ccc(C(=O)N4CCO[C@@H](C)C4)c(F)c3)nccc21	110
CN(CCC#N)C(=O)c1ccc(-c2nccc3c2nc(C(F)(F)F)n3CC(F)F)cc1F	81
CCn1c(C(F)(F)F)nc2c(-c3ccc(C(=O)N4CCOCC4)cc3)cccc21	79.3
O=C(c1ccc(-c2nccc3c2nc(C(F)(F)F)n3CC(F)F)cc1F)N1CCOCC(F)(F)C1	94.2
C[C@@H]1CN(C(=O)c2ccc(-c3nccc4c3nc(C(F)(F)F)n4CC(F)F)cc2F)CCO1	85.5
CCn1c(C(F)(F)F)nc2c(-c3ccc(C(=O)N4CCOCC4)cc3)nccc21	68.4
O=C(c1ccc(-c2nccc3c2nc(C(F)(F)F)n3CC(F)F)cc1F)N1CCC1	78.1
O=C(c1ccc(-c2cccc3c2nc(C(F)(F)F)n3CC(F)F)cc1)N1CCOC(C(F)F)C1 (stereo not drawn)	108
O=C(c1ccc(-c2cccc3c2nc(C(F)(F)F)n3CC(F)F)cc1)N1CCOCC1	83.3
C[C@H]1CN(C(=O)c2ccc(-c3nccc4c3nc(C(F)(F)F)n4CC(F)F)cc2F)CCO1	95.1
